system: KM12; experiment: NCI tumour cell line growth inhibition, 48 h
The source made the active and inactive calls. Cut-off read from the data, not from the text of the source: active = GI50 up to about 1.1 µM and inactive = higher.

Molecule: Cc1c2c(C#N)nccc2c(C)c2c1c1ccccc1n2Cc1ccccc1
Tested system: KM12
GI50: > 100 µM (inactive)
--
Molecule: Cc1c2ccccc2c(C)n2c1nc1cc3ccccc3cc12
Tested system: KM12
GI50: 1.32 µM (inactive)
--
Molecule: Clc1ccc(-n2nnc(C3=NCCCN3)c2-c2ccccc2)cc1
Tested system: KM12
GI50: > 100 µM (inactive)
--
Molecule: C/C(=N\NS(=O)(=O)c1ccc(C)cc1)C(CN1CCOCC1)C(c1ccccc1)c1c(O)c2ccccc2oc1=O (centres undefined)
Tested system: KM12
GI50: > 100 µM (inactive)

====

test system: MCF7; test: NCI tumour cell line growth inhibition, 48 h
Activity calls are given as the source filed them. No stated cut-off is given here; in the data, active = GI50 up to about 1.1 µM and inactive = higher.
Outcomes: active, inactive

Compound: CCOc1ccncc1[N+](=O)[O-]
Tested system: MCF7
Class label: inactive
--
Compound: COc1cc2c(NCCN(C)C)nc3c4cc5c(cc4ccc3c2cc1OC)OCO5
Tested system: MCF7
Class label: inactive
--
Compound: COc1ccc(N2C(=O)C3c4[nH]c5ccc(OC)cc5c4C4CCC(c5ccccc5)CC4C3C2=O)cc1 (stereo unspecified)
Tested system: MCF7
Class label: inactive
--
Compound: N#CCN(Cc1ccccc1)[C@@H]1CCC[C@]1(O)C#Cc1ccc2c(c1)OCO2
Tested system: MCF7
Class label: inactive
--
Compound: CC(=O)NC1C(OCc2ccccc2)OC(CO)C(O)C1OCC(=O)N[C@@H](C)C(=O)N[C@H](CCC(=O)NCCCCNc1c2ccccc2nc2cccc([N+](=O)[O-])c12)C(N)=O (stereo partly specified)
Tested system: MCF7
Class label: active
--
Compound: Cc1c2c(C#N)nccc2c(C)c2c1c1ccccc1n2Cc1ccccc1
Tested system: MCF7
Class label: inactive
--
Compound: CN(c1ccccc1)S(=O)(=O)c1ccccc1[N+](=O)[O-]
Tested system: MCF7
Class label: inactive
--
Compound: C[N+]1(CCCl)CC[N+](C)(CCCl)CC1 (stereo unspecified)
Tested system: MCF7
Class label: inactive
--
Compound: CCCCSC1=N/C(=C\c2ccccc2O)C(Cl)=N1
Tested system: MCF7
Class label: inactive
--
Compound: Cc1c(-c2ccccc2)c(C#N)c2nnn(-c3ccc(Cl)cc3)c(=O)n12
Tested system: MCF7
Class label: inactive
--
Compound: N=c1oc2ccccc2cc1-c1nc2ccccc2c(=O)[nH]1
Tested system: MCF7
Class label: inactive
--
Compound: COc1ncc(C#CC(=O)c2ccccc2OC)c(OC)n1
Tested system: MCF7
Class label: active
--
Compound: O=c1c(C(c2ccc3ccccc3c2)c2c(O)oc3cc(O)ccc3c2=O)c(O)oc2cc(O)ccc12
Tested system: MCF7
Class label: inactive
--
Compound: C=C(Cl)C(C)(Cl)CCC(Cl)C(C)C (stereo unspecified)
Tested system: MCF7
Class label: inactive
--
Compound: CC(=O)N1CCN(C23OC4(N5CCN(C(C)=O)CC5)C5C6CC(C7C6C4C72)C53)CC1 (stereo unspecified)
Tested system: MCF7
Class label: inactive
--
Compound: CC(C)(C)[Si](C)(C)OCC1CCC(n2cnc3c(NC(=O)c4ccccc4)ncnc32)O1 (stereo unspecified)
Tested system: MCF7
Class label: inactive
--
Compound: COC(=O)c1c(OC(C)=O)ccc2c1c1c(OC(C)=O)c3ccccc3c(OC(C)=O)c1n2Cc1cc(OC)cc(OC)c1
Tested system: MCF7
Class label: inactive
--
Compound: c1ccc(CN[C@]23C4C5CC6C7C5C2C7[C@@](NCc2ccccc2)(C64)N3Cc2ccccc2)cc1 (stereo partly specified)
Tested system: MCF7
Class label: inactive
--
Compound: O=[N+]([O-])c1cccc2nc3ccccc3c(NCCCN3CCCCC3)c12
Tested system: MCF7
Class label: active
--
Compound: COC(=O)c1cc(CNCCc2c[nH]c3ccccc23)on1
Tested system: MCF7
Class label: inactive
--
Compound: Cc1cc(C)c(/C=C(\C(=C/c2c(C)cc(C)cc2C)[N+](=O)[O-])[N+](=O)[O-])c(C)c1
Tested system: MCF7
Class label: inactive
--
Compound: CCOC(CBr)OC1C(=O)OCC1(C)C (stereo unspecified)
Tested system: MCF7
Class label: inactive
--
Compound: CN(CCCCN(C)CCc1ccc(Cl)c(Cl)c1)CCCCN1CCCC1
Tested system: MCF7
Class label: inactive
--
Compound: Nc1onc2c1Cc1c(noc1N)-c1ccccc1-2
Tested system: MCF7
Class label: inactive
--
Compound: CC1=C(C(=O)OCCO[N+](=O)[O-])C(c2ccccc2C(F)(F)F)C(C(=O)OC(C)C)=C(C)N1 (stereo unspecified)
Tested system: MCF7
Class label: inactive
--
Compound: CCc1c[n+]2c(cc1C1=CN3c4ccccc4[C@]45CCN6C/C(=C/CO)[C@H](C[C@H]64)[C@@H]([C@@H]1O)[C@H]35)-c1[nH]c3ccccc3c1CC2
Tested system: MCF7
Class label: inactive
--
Compound: Cc1[nH]c2ncn3[nH]c(=S)nc3c2c1Cc1ccccc1
Tested system: MCF7
Class label: inactive
--
Compound: CNC(C#N)c1ccc(OC)cc1 (stereo unspecified)
Tested system: MCF7
Class label: inactive
--
Compound: Oc1cccc2c(Cl)ccnc12
Tested system: MCF7
Class label: active
--
Compound: C=CCC1C(=O)Nc2cccc3ncn(c23)C1=O (stereo unspecified)
Tested system: MCF7
Class label: inactive
--
Compound: CC(=O)OCC(OC(C)=O)C(OC(C)=O)C(OC(C)=O)C(C=NN(C(C)=O)S(=O)(=O)c1ccc(/C=C2\NC(=O)N(C)C2=O)cc1)OC(C)=O (stereo unspecified)
Tested system: MCF7
Class label: inactive
--
Compound: Cc1nc(O)nc2nc3ccc(Cl)cc3c(NC(C)(CO)CO)c12
Tested system: MCF7
Class label: inactive
--
Compound: O=c1[nH]nc(NNc2ccccc2)c2nnn(C3CCCCC3)c12
Tested system: MCF7
Class label: inactive
--
Compound: CC(C)(C(=O)N(C(=O)N1CCN(c2ccccc2)CC1)S(=O)(=O)c1ccccc1)c1ccc(Cl)cc1
Tested system: MCF7
Class label: inactive
--
Compound: C[C@@]12CC[C@H]3[C@@H]4CCC(=O)N[C@@]4(C)CC[C@@H]3[C@@]1(C)CC[C@H](OC(=O)Cc1ccc(N(CCCl)CCCl)cc1)C2
Tested system: MCF7
Class label: inactive
--
Compound: O=C1C2CCCCC2C(=O)N1n1c(-c2ccccc2)n[nH]c1=O (stereo unspecified)
Tested system: MCF7
Class label: inactive
--
Compound: CCC(=O)c1ccc2[nH]c3c(C)c4c(O)cc(C)nc4c(C)c3c2c1
Tested system: MCF7
Class label: inactive
--
Compound: C=CCNC(=O)NC(=O)CSC1=NC(=O)C2(NN1)c1ccccc1-c1ccccc12
Tested system: MCF7
Class label: inactive
--
Compound: C/C(=N\NC(=S)N1CCC(N2CCCCC2)CC1)c1ccccn1
Tested system: MCF7
Class label: inactive
--
Compound: COc1ccc2c(c1)-c1c(c3cc(OC)ccc3n1CCCN(C)C)CC2
Tested system: MCF7
Class label: inactive
--
Compound: C/C(=N\NC(N)=O)C(CN(C)C)C(c1ccccc1)c1c(O)c2ccccc2oc1=O (stereo unspecified)
Tested system: MCF7
Class label: inactive

The values you see were collected from ChEMBL document CHEMBL1201862.
